Measured melting point by item

- compound: "Nc1cc(-n2ccc(=O)cc2)ccc1[N+](=O)[O-]"
  melting point: "298 to 303 °C"
- compound: "CCCc1c(OCCCCCOc2ccc(C(=O)Cc3ccccc3C(=O)O)cc2CCC(=O)O)ccc2c1OCCC2=O"
  melting point: "178 to 182 °C"
- compound: "N#CC1(c2ccc(Cl)cc2)CCC(=O)CC1"
  melting point: "94.5 to 97 °C"
- compound: "CCOC(=O)c1ncn2c1CN=C(c1cccs1)c1cc(C#C[Si](C)(C)C)ccc1-2"
  melting point: "124 to 127 °C"
- compound: "Cc1nnc(-c2ccc3occ(-c4cnn(Cc5ccccc5C(F)(F)F)c4)c3c2)o1"
  melting point: "165 to 166 °C"
- compound: "Nc1nc(NCC(c2ccccc2)c2ccccc2)c2ncn(C3OC(CO)C(O)C3O)c2n1 (stereo not given)"
  melting point: "134 to 137 °C"
- compound: "COc1ccc(C=CC(C)=O)cc1OC"
  melting point: "78 to 80 °C"
- compound: "COC(=O)COc1cc(C(F)(F)F)cc(C(F)(F)F)c1"
  melting point: "65 to 67 °C"

melting point reported for this compound "FC(F)(F)c1cccc(N2CCN(c3ccc(I)nn3)CC2)c1" : 145 °C

melting point reported for this compound "C=CC(=O)Nc1ccc2[nH]nnc2c1" : 248 to 253 °C

----------
outcome-measure: melting point

Would you please look over these solved cases?
- molecule: "COc1cc(OC)c2c(=O)[nH]c(-c3cccc(N4CCN(CCO)CC4)n3)nc2c1"
  melting point: "175 to 177 °C"
- molecule: "COc1ccc2c(c1)C(CC(=O)O)CCO2 (configuration not stated)"
  melting point: "80 to 83 °C"
- molecule: "Cc1noc(NS(=O)(=O)c2ccccc2-c2ccc(-c3ncco3)cc2CN(C)C(=O)c2cccc(F)c2)c1C"
  melting point: "125 to 135 °C"
- molecule: "CCCc1nc(CSc2ccc(CCC(=O)O)cc2)c(C(=O)OCC)n1Cc1cc2c(cc1Cl)OCO2"
  melting point: "174 °C"
- molecule: "CNc1ccc(Cl)cc1Cc1ccccc1"
  melting point: "125 °C"

melting point reported for this molecule "CCCc1c(OCCCC(=O)NCCc2cccnc2)ccc(C(C)=O)c1O" : 94 to 96 °C

melting point reported for this molecule "CC1(C)CC(=O)c2c(Br)cn(-c3ccccn3)c2C1" : 166 to 168 °C

melting point reported for this molecule COC(=O)C1OC(c2ccccc2)OCC1(C)C (configuration not stated) : 86.5 to 88 °C

melting point reported for this molecule "O=CNCCN1CCC(Nc2nc3ccccc3n2Cc2ccc(F)cc2)CC1" : 153 °C

melting point reported for this molecule "Cc1c(C(=O)Nc2nncs2)nnn1Cc1ccc(Cl)c(Cl)c1" : 216 °C

----------
Measured melting point by item

- molecule: "CCOC(=O)c1cccc(Nc2nc3ccccc3o2)c1"
  melting point: "168 to 170 °C"
- molecule: "O=C1CCCc2sc(CCN3CCC(c4csc5cc(F)ccc45)CC3)cc2N1"
  melting point: "191 to 193 °C"
- molecule: "O=C(Cc1ccccc1)Nc1ccccc1C(F)(F)F"
  melting point: "104 °C"
- molecule: "O=C1N(Cc2ccc(N3CCOCC3)nc2)c2ccccc2C12COc1cc3c(cc12)OCCO3 (stereo not given)"
  melting point: "117 to 119 °C"

Read the next record carefully.
melting point reported for this molecule O=C1[C@@H]2Cc3c([nH]c4ccccc34)[C@H](c3ccc4c(c3)OCO4)N2C(=O)N1Cc1ccccc1 (relative stereo) : 208 to 210 °C
